IC50 values for Poly [ADP-ribose] polymerase 1 (Homo sapiens) compiled from several publications are listed below.

Use these answered entries as a reference point.
Cc1cc(Cl)ccc1N1CCN([C@H]2C=C(c3nc4c(c(=O)[nH]3)CC3(CC4)CC3)CC2)CC1 ... 1 to 500 nM
O=c1[nH]c(CCCN2CC=C(c3ccccc3)CC2)nc2c1CCCC21CC1 ... 1 to 500 nM
O=c1[nH]c(C2=CC(N3CCN(c4ccncc4)CC3)CC2)nc2c1CC1(CC2)CC1 (stereo not shown) ... 1 to 500 nM
NCc1cnn2c1[nH]c1cc(F)cc(C(N)=O)c12 ... 1 to 100 nM
Cc1c(Cl)cccc1N1CCN([C@H]2C=C(c3nc4c(c(=O)[nH]3)CC3(CC4)CC3)CC2)CC1 ... 1 to 500 nM
Cc1ccc(N2CCN([C@H]3C=C(c4nc5c(c(=O)[nH]4)CC4(CC5)CC4)CC3)CC2)cc1 ... 1 to 500 nM
N#Cc1ccc(N2CCN([C@H]3C=C(c4nc5c(c(=O)[nH]4)CC4(CC5)CC4)CC3)CC2)c(F)c1 ... 1 to 500 nM
O=c1[nH]c([C@@H]2CC[C@@H](N3CCN(c4ccc(F)cc4)CC3)C2)nc2c1CC1(CC2)CC1 ... 501 to 5000 nM

# context switch: different molecule, same IC50
Qu. Answer briefly: IC50 recorded on Poly [ADP-ribose] polymerase 1 (Homo sapiens) for `O=C(c1cc(Cn2c(=O)[nH]c(=O)c3ccccc32)ccc1F)N1CCC(N2CCCC2)CC1`
Ans. 0.1 to 10 nM
